Entry source: patent US20240316154A1

Biological target: T1, Dog serum albumin (dog, UniProt P49822 25-608)
T1 construct: bought; immobilised on a CM5 chip by amine coupling; also called Dog SA
Assay: SPR, SA on chip, VHH 300 nM, 25 C
measured.parameter: koff (s⁻¹)
The reply should contain only the number, in s⁻¹.

Please review the following examples before continuing.
binder="VHH moiety 19 (MC6.1C22-R102S) (VHH) VHH: EVQLLESGGGLVQPGGSLRLSCAASGRYIDETAVAWFRQAPGKEREFVAGIGGGVDITYYADSVKGRFTISRDNSKNTLYLQMNSLRPEDTAVYYCAARPGSPLITSKVADLYPYWGQGTLVTVSS" value_reported=0.014
binder="VHH moiety 21 (MC6.1C22-P103Q) (VHH) VHH: EVQLLESGGGLVQPGGSLRLSCAASGRYIDETAVAWFRQAPGKEREFVAGIGGGVDITYYADSVKGRFTISRDNSKNTLYLQMNSLRPEDTAVYYCAARPGRQLITSKVADLYPYWGQGTLVTVSS" value_reported=0.0081
binder="VHH moiety 39 (MC6.1C90.43) (VHH) VHH: EVQLLESGGGLVQPGGSLRLSCAASGRYIDETAVAWFRQAPGKGREFVAGIGGGVDITYYADSVKGRFTISRDNSKNTLYLQMNSLRPEDTAVYYCGARPGRPLITSKVADLYPYWGQGTLVTVSS" value_reported=0.0021

Now examine the next entry.
Record VHH moiety 18 (MC6.1C22-R102Q) (VHH) VHH: EVQLLESGGGLVQPGGSLRLSCAASGRYIDETAVAWFRQAPGKEREFVAGIGGGVDITYYADSVKGRFTISRDNSKNTLYLQMNSLRPEDTAVYYCAARPGQPLITSKVADLYPYWGQGTLVTVSS , field koff: 0.015
